Origin of the recorded values: patent US9409880B2

- target.desc: TLR3 (Mus musculus)
- Construct: endogenous in cells; host or cells: RAW 264.7
- Sequence (Q99MB1 26-905): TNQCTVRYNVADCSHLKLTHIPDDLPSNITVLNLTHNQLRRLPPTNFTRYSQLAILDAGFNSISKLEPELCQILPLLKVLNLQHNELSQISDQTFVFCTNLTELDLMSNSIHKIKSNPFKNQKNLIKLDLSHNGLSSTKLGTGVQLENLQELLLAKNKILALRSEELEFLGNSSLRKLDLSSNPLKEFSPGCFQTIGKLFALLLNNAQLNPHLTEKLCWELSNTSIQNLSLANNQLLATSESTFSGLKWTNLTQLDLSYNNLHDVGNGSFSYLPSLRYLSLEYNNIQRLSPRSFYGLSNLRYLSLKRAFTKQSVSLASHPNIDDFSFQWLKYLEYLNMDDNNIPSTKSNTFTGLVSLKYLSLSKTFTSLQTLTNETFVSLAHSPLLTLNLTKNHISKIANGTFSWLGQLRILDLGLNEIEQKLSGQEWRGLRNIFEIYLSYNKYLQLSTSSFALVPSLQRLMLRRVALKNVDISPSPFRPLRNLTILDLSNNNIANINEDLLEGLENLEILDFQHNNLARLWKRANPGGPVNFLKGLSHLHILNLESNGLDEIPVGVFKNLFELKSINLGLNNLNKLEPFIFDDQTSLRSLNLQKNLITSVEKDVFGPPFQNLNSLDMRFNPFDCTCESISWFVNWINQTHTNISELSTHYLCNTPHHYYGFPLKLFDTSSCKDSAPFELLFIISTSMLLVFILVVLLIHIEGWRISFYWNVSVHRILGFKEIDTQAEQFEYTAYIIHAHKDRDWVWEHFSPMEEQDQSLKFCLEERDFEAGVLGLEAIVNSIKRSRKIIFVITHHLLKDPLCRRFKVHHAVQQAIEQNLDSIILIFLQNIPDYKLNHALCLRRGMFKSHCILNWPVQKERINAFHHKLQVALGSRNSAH
- method: In vitro TLR3 inhibition assay: Poly IC-induced NO production in RAW 264.7 cells
- Format: cell-based
- cond: whole cell inhibitory activity; Poly IC-induced NO, RAW 264.7; average ± SD, at least three independent tests
pIC50: −log10 of the molar value.
measured.endpoint: pIC50

>>> numeric_result("O=C(N[C@H](Cc1ccccc1)C(=O)O)c1cc2c(s1)CCCCC2 [Compound T5626448, reference compound]")
3.81
>>> numeric_result("O=C(N[C@H](Cc1ccccc1)C(=O)O)c1sc2cc(F)c(F)cc2c1Cl")
4.15
>>> numeric_result("O=C(N[C@H](Cc1ccccc1)C(=O)O)c1sc2cc(C(F)(F)F)ccc2c1Cl")
5.20
>>> numeric_result("O=C(N[C@@H](Cc1ccccc1)C(=O)O)c1sc2ccc(F)cc2c1Cl [Compound 12b]")
4.27
>>> numeric_result("O=C(N[C@H](Cc1ccc(O)cc1)C(=O)O)c1sc2cc(F)ccc2c1Cl")
4.25
>>> numeric_result("COc1ccc2c(Cl)c(C(=O)N[C@H](Cc3ccccc3)C(=O)O)sc2c1")
4.44

1. O=C(N[C@H](Cc1ccccc1)C(=O)O)c1sc2ccc(F)cc2c1Cl [Compound 12a]
2. O=C(O)[C@@H](Cc1ccccc1)NS(=O)(=O)c1ccccc1F [Compound T5260630, reference compound]
3. O=C(N[C@@H](Cc1ccccc1)C(=O)O)c1sc2cc(C(F)(F)F)ccc2c1Cl
4. O=C(N[C@H](Cc1ccccc1)C(=O)O)c1sc2cc(Cl)ccc2c1Cl
-- ask Sort the 4 compounds by pIC50; largest first, smallest last. To answer, arrange all of the labels according to the requested order.
-- reply 4, 3, 1, 2
